Biological target: human CB2R (Homo sapiens)
Construct: host or cells: CHO cells
Experiment: CB2R mediated modulation of cAMP synthesis
Assay type: cell-based
Details: found through the use of the described assays (CB2 agonists); qualitative statement
value.kind: agonistic activity

Please review the following examples before continuing.
compound="CCC(C)c1cc(NC(=O)N2CCCN(C(=O)N3CCOCC3)CC2)on1 (stereo not shown)" value_kind="agonistic activity" result="agonistic activity"
compound=O=C(CC1CCCC1)N1CCCN(C(=O)Nc2cccc(C(F)(F)F)c2)CC1 value_kind="agonistic activity" result="agonistic activity"
compound="COC1CCC(C(=O)N2CCCN(C(=O)Nc3cc(C(C)(C)C)on3)CC2)CC1 (stereo not shown)" value_kind="agonistic activity" result="agonistic activity"
compound=CC(C)(C)c1cc(NC(=O)N2CCCN(C(=O)C3CCC(F)(F)CC3)CC2)on1 value_kind="agonistic activity" result="agonistic activity"

# input What does the record list as agonistic activity for Cc1csc(NC(=O)N2CCCN(C(=O)C3CCOCC3)CC2)n1 ?
# output agonistic activity

# input Now give it for CC(C)(C)CC(=O)N1CCCN(C(=O)Nc2ccc3ccccc3c2)CC1 too.
# output agonistic activity

# input Now give it for CC(C)(C)c1ccc(NC(=O)N2CCCN(C(=O)CCC3CC3)CC2)cc1 too.
# output agonistic activity

# input Now give it for CC(C)c1ccc(NC(=O)N2CCCN(C(=O)c3ccccn3)CC2)cc1 too.
# output agonistic activity

# input Now give it for O=C(CC1CCCC1)N1CCCN(C(=O)Nc2ccc(Cl)cc2Cl)CC1 too.
# output agonistic activity

# input Now give it for CC(C)(C)c1cc(NC(=O)N2CCCN(C(=O)C3CCCN(S(C)(=O)=O)C3)CC2)no1 (stereo not shown) too.
# output agonistic activity

---

Reported values of EC50 for individual entries
Biological target: human CB2R (Homo sapiens)
Construct: host or cells: CHO cells
Assay: CB2R mediated modulation of cAMP synthesis
Type: cell-based

molecule="CC(C)c1ccc(NC(=O)N2CCCN(C(=O)CC(C)(C)C)CC2)cc1 [Compound 60]" value_kind=EC50 result="78 nM"
molecule="CC(C)(C)c1cc(NC(=O)N2CCCN(C(=O)NC3CCCCC3)CC2)no1 [Compound 212]" value_kind=EC50 result="70 nM"
molecule="CC(C)(C)c1cc(NC(=O)N2CCCN(C(=O)c3ccc(C(F)(F)F)cc3)CC2)no1 [Compound 154]" value_kind=EC50 result="1.5 nM"
molecule="O=C(Nc1nc(-c2ccccc2)cs1)N1CCCN(C(=O)C2CCC(O)CC2)CC1 (centres unmarked) [Compound 174]" value_kind=EC50 result="43 nM"
molecule="CCC(C)c1cc(NC(=O)N2CCCN(C(=O)C3CCOCC3)CC2)on1 (centres unmarked) [Compound 193]" value_kind=EC50 result="41 nM"
molecule="CC(C)(C)c1cc(NC(=O)N2CCCN(C(=O)C3CCC(F)(F)CC3)CC2)no1 [Compound 144]" value_kind=EC50 result="1.3 nM"
molecule="CC(C)(C)c1cc(NC(=O)N2CCCN(C(=O)NC3CCCC3)CC2)no1 [Compound 217]" value_kind=EC50 result="32 nM"

# input What does the record list as EC50 for CC(C)(C)c1cc(NC(=O)N2CCCN(C(=O)N3CCC(F)(F)CC3)CC2)no1 [Compound 206] ?
# output 16 nM

---

Molecular target: human CB2R (Homo sapiens)
Construct: host or cells: CHO cells
Assay: CB2R mediated modulation of cAMP synthesis
Type: cell-based
value.kind: EC50 (nM)
Entry rule: numbers only, all in nM.

Please review the following examples before continuing.
molecule=CC(C)(C)c1cc(NC(=O)N2CCCN(C(=O)CC3CCCC3)CC2)no1 test_target="human CB2R (Homo sapiens)" result=12
molecule=CC(C)(C)c1cc(NC(=O)N2CCCN(C(=O)C3CCC(=O)CC3)CC2)no1 test_target="human CB2R (Homo sapiens)" result=33
molecule="CCC(C)c1ccc(NC(=O)N2CCCN(C(=O)CC3CCCC3)CC2)cc1 (stereo not shown)" test_target="human CB2R (Homo sapiens)" result=7.1

Kindly review the next molecule as well.
# input What does the record list as EC50 for CC(C)(C)c1cc(NC(=O)N2CCCN(C(=O)N3CCCCC3)CC2)no1 ?
# output 47

---

Reported values of Emax for individual entries
Molecular target: human CB2R (Homo sapiens, UniProt P34972)
Construct: host or cells: CHO cells
Sequence (P34972 whole entry): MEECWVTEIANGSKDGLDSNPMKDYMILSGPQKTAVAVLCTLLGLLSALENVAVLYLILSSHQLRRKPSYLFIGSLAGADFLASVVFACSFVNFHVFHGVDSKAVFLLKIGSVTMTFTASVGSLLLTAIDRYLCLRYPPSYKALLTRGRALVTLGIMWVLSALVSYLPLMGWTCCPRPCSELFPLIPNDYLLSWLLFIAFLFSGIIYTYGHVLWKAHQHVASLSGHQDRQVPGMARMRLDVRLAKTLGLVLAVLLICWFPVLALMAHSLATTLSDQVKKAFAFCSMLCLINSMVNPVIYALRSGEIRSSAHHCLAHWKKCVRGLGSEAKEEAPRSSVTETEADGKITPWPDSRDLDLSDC
Assay: CB2R mediated modulation of cAMP synthesis
Type: cell-based
Conditions: 0.5 h; CHO cells expressing human CB2R; cAMP inhibited by 1 uM CP55940 defined as 100%; read-out: Agonist Efficacy (%)
Entry rule: numbers only, all in %.

# input Give recorded Emax with human CB2R (Homo sapiens, UniProt P34972) for the following compound: O=C(Nc1ccc2ccccc2c1)N1CCCN(C(=O)c2ccc(Cl)cc2Cl)CC1
# output 102

# input Now give it for CC(=O)NC1CCC(C(=O)N2CCCN(C(=O)Nc3cc(C(C)(C)C)on3)CC2)CC1 (centres unmarked) too.
# output 107

# input Now give it for O=C(CC1CCCC1)N1CCCN(C(=O)Nc2ccc3ccccc3c2)CC1 too.
# output 100

# input Now give it for CC(C)(C)c1ccc(NC(=O)N2CCCN(C(=O)CCC3CCCCC3)CC2)cc1 too.
# output 96

# input Now give it for CC(C)c1ccc(NC(=O)N2CCCN(C(=O)CC3CCCCC3)CC2)cc1 too.
# output 95

# input Now give it for CC(C)(C)c1cc(NC(=O)N2CCCN(C(=O)N3CCS(=O)(=O)CC3)CC2)on1 too.
# output 100

---

Molecular target: human CB2R (Homo sapiens)
Construct: host or cells: CHO cells
Test: CB2R mediated modulation of cAMP synthesis
Type: cell-based
Conditions: read-out: hCB2 cAMP EC50
value.kind: EC50 (nM)
Entry rule: numbers only, all in nM.

molecule=O=C(Nc1ccc(SC(F)(F)F)cc1)N1CCCN(C(=O)C2CCCCC2)CC1 test_target="human CB2R (Homo sapiens)" result=12
molecule=O=C(Nc1ccc2ccccc2c1)N1CCCN(C(=O)c2ccc(Cl)cc2Cl)CC1 test_target="human CB2R (Homo sapiens)" result=100
molecule="CC(=O)NC1CCC(C(=O)N2CCCN(C(=O)Nc3cc(C(C)(C)C)on3)CC2)CC1 (stereo not shown)" test_target="human CB2R (Homo sapiens)" result=68
molecule=O=C(Nc1nc(C2CC2)cs1)N1CCCN(C(=O)c2ccc(Cl)cc2)CC1 test_target="human CB2R (Homo sapiens)" result=90
molecule=CCCCCc1ccc(NC(=O)N2CCCN(C(=O)CC3CCCC3)CC2)cc1 test_target="human CB2R (Homo sapiens)" result=48
molecule=CC(C)(C)c1cnc(NC(=O)N2CCCN(C(=O)N3CCS(=O)(=O)CC3)CC2)s1 test_target="human CB2R (Homo sapiens)" result=20
molecule=CC(C)(C)c1cc(NC(=O)N2CCCN(C(=O)CN3CCC(F)(F)CC3)CC2)no1 test_target="human CB2R (Homo sapiens)" result=24
molecule=CC(C)(C)c1ccc(NC(=O)N2CCCN(C(=O)c3ccc(Cl)c(Cl)c3)CC2)cc1 test_target="human CB2R (Homo sapiens)" result=64
molecule=O=C(CC1CCCC1)N1CCCN(C(=O)Nc2ccc(SC(F)(F)F)cc2)CC1 test_target="human CB2R (Homo sapiens)" result=36
molecule=O=C(Nc1ccc2ccccc2c1)N1CCCN(C(=O)c2ccc(Cl)c(Cl)c2)CC1 test_target="human CB2R (Homo sapiens)" result=52

# input What does the record list as EC50 for Cc1nc(NC(=O)N2CCCN(C(=O)C3CCC(F)(F)CC3)CC2)sc1C(C)(C)C ?
# output 0.7

# input Now give it for Cc1nc(NC(=O)N2CCCN(C(=O)C3CCOCC3)CC2)sc1C(C)(C)C too.
# output 18

# input Now give it for CCC(C)c1ccc(NC(=O)N2CCCN(C(=O)C3CCOCC3)CC2)nc1 (stereo not shown) too.
# output 47

# input Now give it for O=C(Nc1ccc(C(F)(F)F)cc1)N1CCCN(C(=O)c2ccc(C(F)(F)F)cc2)CC1 too.
# output 75

---

Target: human CB2R (Homo sapiens)
Construct: host or cells: CHO cells
Experiment: CB2R mediated modulation of cAMP synthesis
Format: cell-based
Conditions: found through the use of the described assays (CB2 agonists); qualitative statement
value.kind: agonistic activity

molecule=CS(=O)(=O)c1ccc(NC(=O)N2CCCN(C(=O)CC3CCOCC3)CC2)cc1 value_kind="agonistic activity" result="agonistic activity"
molecule=CC(C)(C)c1cc(NC(=O)N2CCCN(C(=O)C3CCN(S(C)(=O)=O)CC3)CC2)no1 value_kind="agonistic activity" result="agonistic activity"
molecule=CC(C)c1ccc(NC(=O)N2CCCN(C(=O)c3ccncc3)CC2)cc1 value_kind="agonistic activity" result="agonistic activity"
molecule="CC(C)(C)c1cnc(NC(=O)N2CCCN(C(=O)C3CCC(O)CC3)CC2)s1 (stereo not shown)" value_kind="agonistic activity" result="agonistic activity"
molecule=O=C(CC1CCOCC1)N1CCCN(C(=O)Nc2ccc(C(F)(F)F)cc2)CC1 value_kind="agonistic activity" result="agonistic activity"
molecule=CC(C)c1ccc(NC(=O)N2CCCN(C(=O)C3CCCCC3)CC2)cc1 value_kind="agonistic activity" result="agonistic activity"
molecule=O=C(CCC1CCCC1)N1CCCN(C(=O)NCC2CCCCC2)CC1 value_kind="agonistic activity" result="agonistic activity"
molecule=CC(C)c1ccc(NC(=S)N2CCCN(C(=O)CC3CCCC3)CC2)cc1 value_kind="agonistic activity" result="agonistic activity"

# input What does the record list as agonistic activity for CC(C)(C)c1cc(NC(=O)N2CCCN(C(=O)C3CCS(=O)(=O)CC3)CC2)no1 ?
# output agonistic activity

# input Now give it for CS(=O)(=O)c1ccc(NC(=O)N2CCCN(C(=O)CCC3CCCC3)CC2)cc1 too.
# output agonistic activity
